Counter-ions that a name gives are not always drawn.
RESULT_TYPE: melting point

Prompt: Param item = Fc1cccc2[nH]cc([C@H]3CC[C@@H](N4CCN(c5cccc6[nH]ccc56)CC4)CC3)c12 (as salt: HCl) (hydrate or solvate) ; retrieve measured melting point.
Completion: 283 to 285 °C

Prompt: Param item = COc1ccc2[nH]cc([C@H]3CC[C@H](N4CCN(c5cccc6[nH]ccc56)CC4)CC3)c2c1 (as salt: HCl) (hydrate or solvate) ; retrieve measured melting point.
Completion: 194 to 196 °C

Prompt: Param item = c1cc(N2CCN([C@H]3CC[C@H](c4c[nH]c5ccccc54)CC3)CC2)c2cc[nH]c2c1 (as salt: HCl) ; retrieve measured melting point.
Completion: 305 °C (dec.)

Prompt: Param item = COc1cc(N2CCN([C@H]3CC[C@@H](c4c[nH]c5ncccc54)CC3)CC2)c2ncccc2c1 (as salt: oxalate) ; retrieve measured melting point.
Completion: 216 to 220 °C

Prompt: Param item = CCn1cc([C@H]2CC[C@H](N3CCN(c4cccc5[nH]ccc45)CC3)CC2)c2cc(C#N)ccc21 (as salt: HCl) [Example 13b] ; retrieve measured melting point.
Completion: 250 °C (dec.)

Prompt: Param item = N#Cc1ccc2[nH]cc([C@H]3CC[C@@H](N4CCN(c5cc(F)cc6c5OCC6)CC4)CC3)c2c1 (as salt: HCl) (hydrate or solvate) [Example 33a] ; retrieve measured melting point.
Completion: 298 to 301 °C

Prompt: Param item = COc1cc(N2CCN([C@H]3CC[C@@H](c4cn(C)c5cc(F)ccc54)CC3)CC2)c2ncccc2c1 ; retrieve measured melting point.
Completion: 219 to 223 °C

Prompt: Param item = COc1ccc2[nH]cc([C@H]3CC[C@@H](N4CCN(c5ccccc5OC)CC4)CC3)c2c1 (as salt: HCl) [Example 20a] ; retrieve measured melting point.
Completion: 198 to 199 °C

Prompt: Param item = Cn1cc([C@H]2CC[C@@H](N3CCN(c4cccc5cccnc45)CC3)CC2)c2cc(C#N)ccc21 (as salt: HCl) ; retrieve measured melting point.
Completion: 288 to 289 °C

Prompt: Param item = Fc1cc2c(c(N3CCN([C@H]4CC[C@H](c5c[nH]c6ccc(F)cc65)CC4)CC3)c1)OCC2 (as salt: HCl) (hydrate or solvate) [Example 32b] ; retrieve measured melting point.
Completion: 303 to 305 °C

Prompt: Param item = COc1ccccc1N1CCN([C@H]2CC[C@@H](c3c[nH]c4ccc(F)cc43)CC2)CC1 (as salt: HCl) ; retrieve measured melting point.
Completion: 170 to 172 °C

Prompt: Param item = COc1cc(N2CCN([C@H]3CC[C@H](c4cn(C)c5ccc(C#N)cc54)CC3)CC2)c2nccc(C)c2c1 [Example 51d] ; retrieve measured melting point.
Completion: 230 to 232 °C

Prompt: Param item = Cn1cc([C@H]2CC[C@@H](N3CCN(c4cccc5[nH]ccc45)CC3)CC2)c2cc(C#N)ccc21 (as salt: HCl) (hydrate or solvate) [Example 12a] ; retrieve measured melting point.
Completion: 285.5 to 288 °C

Prompt: Param item = N#Cc1ccc2[nH]cc([C@H]3CC[C@H](N4CCN(c5cccc6c5OCCO6)CC4)CC3)c2c1 (as salt: HCl) [Example 26b] ; retrieve measured melting point.
Completion: 300 °C (dec.)

Prompt: Param item = N#Cc1ccc2[nH]cc([C@H]3CC[C@@H](N4CCN(c5cccc6[nH]ccc56)CC4)CC3)c2c1 (as salt: HCl) ; retrieve measured melting point.
Completion: 216 to 218 °C

Prompt: Param item = Cn1ccc2c(N3CCN([C@H]4CC[C@@H](c5cn(C)c6ccc(C#N)cc65)CC4)CC3)cccc21 (as salt: HCl) ; retrieve measured melting point.
Completion: 252 to 255 °C

Prompt: Param item = Fc1ccc2[nH]cc([C@H]3CC[C@H](N4CCN(c5cccc6[nH]ccc56)CC4)CC3)c2c1 (as salt: HCl) ; retrieve measured melting point.
Completion: 280 °C (dec.)

Prompt: Param item = Cn1cc([C@H]2CC[C@@H](N3CCN(c4cc(Br)cc5cccnc45)CC3)CC2)c2cc(F)ccc21 [Example 58a] ; retrieve measured melting point.
Completion: 215 to 217 °C
